Please provide measured EC50 for the entries that follow.
Target: 229E FP peptide (229E)
Experiment: peptide ELISA
Give bare numbers, in µg/mL.

Answered examples (3):
[ask] I have this binder here, fp.010 (antibody, V domains shown) VH: EVQLLESGGGLVQPGGSLRLSCAASGFTFSTYAMNWVRQAPGKGLEWVSAISSSGLSTQYADSVRGRFTISRDTSKNTLYLHMNSLRAGDTAVYYCAKVEYSGYDPRGPFDSWGQGTLVTVSS VL: DIQMTQSPSTLSASVGDRVTITCRASQSISGWLAWYQQKPGRAPKLLIYKASSLERGVPSRFSGSGSGTEFTLTISSLQPDDFATYYCQEYSSYPLCTFGQGTKLEIK , and I need its recorded EC50.
[reply] 0.135

[ask] Entry fp.006 (antibody, V domains shown) VH: VQLVESGGGVVQPGGSLRLSCAASGFNFNNYALHWVRQAPGKGLEWVAIISYEARNKKYGVSVMGRFSISRDNSKSIMYLEMNSLRVEDTGVYYCARDLFLSDYDRSGYDPTRGGFDHWGQGTLVTVSS VL: EIVMTQSPATLSVSPGERATLSCRASQSVSSSLAWYQHRFGQAPRLLISGASTRATGIPGRFSGSGSGTEFTLTISSLQSEDVAVYYCQQYGDWPLVTFGGGTKVEIK : reported EC50 = ?
[reply] 0.0121

[ask] Consider the binder shown here: fp.011 (antibody, V domains shown) VH: EVQLLESGGGLVQPGGSLRLSCAGSGFTFNNYAMTWVRQAPGRGLEWVSAISGSGGSSHYADSVKGRFTITRDNSKNTLYLQMNSLRAEDTAVYYCAFIDYYSGWSYYYGLDVWGQGTTVTVSS VL: EIVLTQSPATLSLSPGERATLSCRASQGVRTYVAWYQQKPGQAPRLLIYDASNRATGIPARFSGSGSGTDFTLTISSLEPEDFAVYYCQQRYNWPLCSFGQGTKLEIK What is its recorded EC50?
[reply] 0.0503

// each binder listed below needs its EC50
1. fp.001 (antibody, V domains shown) VH: VQLVESGGGVVQPGRPLRLSCSGSGFIFSNYAMHWVRQAPGKGLEWVAIISFDARNKRYADSVEGRFTISRDNSKNILYLQMNSLRLEDSAVYFCARDLFLSDYDNGVYDPTRGGFDYWGQGTLVTVSS VL: EIVMTQSPATLSLSPGERATLSCRASQSVNNRLAWYQQKLGQPPRLLISGASTRATGIPARFTGSGSGTEFTLTISSLQSEDFAVYYCQQYHDWPLLSFGGGTKVEIK
2. fp.009 (antibody, V domains shown) VH: VQLVESGGGVVQPGTSLTLSCEASGFTFSNYAMHWVRQAPGKGLEWVAIISFDTRNKKFAGSVQGRFSISRDNAKNSIYLQMNNLRPEDTGIYYCARDVFLSDYDSRGFDRTRGGFDYWGQGTLVTVSS VL: EIVMTQSPATLSVSPGEKATLSCRASESVGSSLAWYQQKLGQAPRLLIYGASTRATGIPARFSGSGSGAEFTLTISSLQSEDFAIYYCQQYGDWPLLTFGGGTKVEIK

[reply]
[0.0232, 0.0236]
